Biological target: NPY Y2 receptor (Homo sapiens)
Sequence (P49146 1-381): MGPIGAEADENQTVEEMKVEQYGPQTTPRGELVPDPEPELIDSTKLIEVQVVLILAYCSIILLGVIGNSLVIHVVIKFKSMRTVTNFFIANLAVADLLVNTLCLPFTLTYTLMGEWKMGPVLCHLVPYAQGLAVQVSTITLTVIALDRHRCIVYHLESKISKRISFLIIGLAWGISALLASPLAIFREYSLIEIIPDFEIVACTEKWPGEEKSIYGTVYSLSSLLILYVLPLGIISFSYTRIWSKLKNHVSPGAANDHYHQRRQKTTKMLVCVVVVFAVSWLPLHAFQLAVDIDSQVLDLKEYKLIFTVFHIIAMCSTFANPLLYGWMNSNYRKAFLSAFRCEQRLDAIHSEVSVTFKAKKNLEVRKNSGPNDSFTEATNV
Assay: Neuropeptide Y2 radioligand binding assay ([125I]PYY, KAN-Ts membranes)
Settings: apparent Ki=IC50/(1+C/KD)
readoutKind: pKi
Would you please state pKi, meaning minus log10 of the concentration in mol/L, as a bare number?

So, Cc1ccccc1C(c1ccccc1)N1CCN(c2ccc(NC(=O)c3c(C)noc3C)cc2C#N)CC1 (stereo not shown) ? Its pKi was 6.85

For this compound ( Cc1noc(C)c1C(=O)Nc1ccc(N2CCN(C(c3ccc(F)cc3)c3ccc(F)cc3)CC2)c(C#N)c1 ), measured pKi is 6.13

GET /value?item= CN(C)CC(=O)Nc1ccc(N2CCN(C(c3ccccc3)c3ccccc3)CC2)c(C#N)c1 &field=pKi returns 6.60

Consider CCC(CC)C(=O)Nc1ccc(N2CCN(C(c3ccccc3)c3ccccc3)CC2)c(C#N)c1 . Its measured pKi is 8.33
